system: Acinetobacter baumannii; assay: Synergistic antibacterial activity against Acinetobacter baumannii PR448 producing OXA-23 assessed as meropenem MIC at 4 ug/ml by broth microdilution method; format: functional; details: dose 4 µg/ml
MIC overview
QUANTITY_MEASURED: MIC

>>> df
                                   molecule  experimental_result
0  O=C(NNC(=O)[C@@H]1CC[C@@H]2CN1C(=O)N2OS(=O)(=O)O)[C@@H]1CCCNC1           > 16 µg/mL
1  N#C[C@@H]1CC[C@@H]2CN1C(=O)N2OS(=O)(=O)[O-].[Na+]              2 µg/mL
2  O.O=C(NC1CCNCC1)[C@@H]1CC[C@@H]2CN1C(=O)N2OS(=O)(=O)O           > 16 µg/mL
3  NC(=O)[C@@H]1CC[C@@H]2CN1C(=O)N2OS(=O)(=O)[O-].[Na+] [AVIBACTAM SODIUM]           > 16 µg/mL
4  O=C(NNC(=O)[C@@H]1CC[C@@H]2CN1C(=O)N2OS(=O)(=O)O)[C@@H]1CCNC1           > 16 µg/mL

###

tested on: Acinetobacter baumannii; test: Synergistic antibacterial activity against ADC deleted Acinetobacter baumannii transfected with pWH1266 OXA-23 assessed as meropenem MIC at 4 ug/ml by broth microdilution method; format: functional; conditions: dose 4 µg/ml
MIC overview
QUANTITY_MEASURED: MIC

In [3]: df
Out[3]:
                                   compound                tested_on  quantity_measured  experimental_result
0  O.O=C(NC1CCNCC1)[C@@H]1CC[C@@H]2CN1C(=O)N2OS(=O)(=O)O [RELEBACTAM]  Acinetobacter baumannii                MIC           > 16 µg/mL
1  O=C(NNC(=O)[C@@H]1CC[C@@H]2CN1C(=O)N2OS(=O)(=O)O)[C@@H]1CCCNC1 [ZIDEBACTAM]  Acinetobacter baumannii                MIC           > 16 µg/mL
2  NC(=O)[C@@H]1CC[C@@H]2CN1C(=O)N2OS(=O)(=O)[O-].[Na+] [AVIBACTAM SODIUM]  Acinetobacter baumannii                MIC           > 16 µg/mL
3  N#C[C@@H]1CC[C@@H]2CN1C(=O)N2OS(=O)(=O)[O-].[Na+]  Acinetobacter baumannii                MIC             16 µg/mL

###

system: Bacteria; test: Inhibition of bacteria KPC-2 assessed as half life using nitrocefin as substrate
T1/2 overview
QUANTITY_MEASURED: T1/2

In [3]: df
Out[3]:
                                   compound  quantity_measured  experimental_result
0  O=C(NNC(=O)[C@@H]1CC[C@@H]2CN1C(=O)N2OS(=O)(=O)O)[C@@H]1CCCNC1               T1/2               29 min
1  O.O=C(NC1CCNCC1)[C@@H]1CC[C@@H]2CN1C(=O)N2OS(=O)(=O)O               T1/2               46 min
2  N#C[C@@H]1CC[C@@H]2CN1C(=O)N2OS(=O)(=O)[O-].[Na+]               T1/2               26 min
3  NC(=O)[C@@H]1CC[C@@H]2CN1C(=O)N2OS(=O)(=O)[O-].[Na+] [AVIBACTAM SODIUM]               T1/2               82 min
4  O=C(NNC(=O)[C@@H]1CC[C@@H]2CN1C(=O)N2OS(=O)(=O)O)[C@@H]1CCNC1               T1/2               33 min

###

test: Binding affinity to bacteria OXA-48 assessed as dissociation constant
pKd: −log10 of the molar value.
QUANTITY_MEASURED: pKd

                                 mol_smiles  quantity_measured  experimental_result
0  N#C[C@@H]1CC[C@@H]2CN1C(=O)N2OS(=O)(=O)[O-].[Na+]                pKd                 8.85

###

pKi overview
assay: Inhibition of bacteria ADC-7 assessed as apparent inhibition constant using nitrocefin as substrate
pKi: −log10 of the molar value.
QUANTITY_MEASURED: pKi

In [3]: df
Out[3]:
                                   molecule  quantity_measured  experimental_result
0  NC(=O)[C@@H]1CC[C@@H]2CN1C(=O)N2OS(=O)(=O)[O-].[Na+] [AVIBACTAM SODIUM]                pKi                 4.72
1  O=C(NNC(=O)[C@@H]1CC[C@@H]2CN1C(=O)N2OS(=O)(=O)O)[C@@H]1CCNC1                pKi                 5.43
2  O=C(NNC(=O)[C@@H]1CC[C@@H]2CN1C(=O)N2OS(=O)(=O)O)[C@@H]1CCCNC1                pKi                 5.64

###

K overview
tested on: Bacteria; assay: Inhibition of bacteria ADC-7 assessed as Koff rate using nitrocefin as substrate incubated for 30 mins
QUANTITY_MEASURED: K

In [3]: df
Out[3]:
                                   compound  tested_on  quantity_measured  experimental_result
0  O.O=C(NC1CCNCC1)[C@@H]1CC[C@@H]2CN1C(=O)N2OS(=O)(=O)O [RELEBACTAM]   Bacteria                  K            3 10^-4/s
1  N#C[C@@H]1CC[C@@H]2CN1C(=O)N2OS(=O)(=O)[O-].[Na+]   Bacteria                  K            1 10^-3/s
2  NC(=O)[C@@H]1CC[C@@H]2CN1C(=O)N2OS(=O)(=O)[O-].[Na+] [AVIBACTAM SODIUM]   Bacteria                  K          3.5 10^-4/s
3  O=C(NNC(=O)[C@@H]1CC[C@@H]2CN1C(=O)N2OS(=O)(=O)O)[C@@H]1CCCNC1 [ZIDEBACTAM]   Bacteria                  K          1.1 10^-3/s
4  O=C(NNC(=O)[C@@H]1CC[C@@H]2CN1C(=O)N2OS(=O)(=O)O)[C@@H]1CCNC1   Bacteria                  K            9 10^-4/s

###

MIC overview
test system: Klebsiella pneumoniae; assay: Synergistic antibacterial activity against Klebsiella pneumoniae 1108/1989 producing KPC-3 assessed as cefepime MIC at 4 ug/ml by broth microdilution method; type: functional; conditions: dose 4 µg/ml
QUANTITY_MEASURED: MIC (µg/mL)

In [3]: df
Out[3]:
                                   molecule              tested_on  quantity_measured  inequality_operator  experimental_result
0  N#C[C@@H]1CC[C@@H]2CN1C(=O)N2OS(=O)(=O)[O-].[Na+]  Klebsiella pneumoniae                MIC                    =                 0.25
1  O=C(NNC(=O)[C@@H]1CC[C@@H]2CN1C(=O)N2OS(=O)(=O)O)[C@@H]1CCCNC1 [ZIDEBACTAM]  Klebsiella pneumoniae                MIC                    ≤                 0.12
2  O=C(NNC(=O)[C@@H]1CC[C@@H]2CN1C(=O)N2OS(=O)(=O)O)[C@@H]1CCNC1  Klebsiella pneumoniae                MIC                    ≤                 0.12
3  O.O=C(NC1CCNCC1)[C@@H]1CC[C@@H]2CN1C(=O)N2OS(=O)(=O)O [RELEBACTAM]  Klebsiella pneumoniae                MIC                    =                  0.5
4  NC(=O)[C@@H]1CC[C@@H]2CN1C(=O)N2OS(=O)(=O)[O-].[Na+] [AVIBACTAM SODIUM]  Klebsiella pneumoniae                MIC                    ≤                 0.12

###

test system: Pseudomonas aeruginosa; assay: Antibacterial activity against Pseudomonas aeruginosa 839 by broth microdilution method; format: functional
MIC overview
QUANTITY_MEASURED: MIC (mg/L)

                                   compound  endpoint_unit  inequality_operator  experimental_result
0  NC(=O)[C@@H]1CC[C@@H]2CN1C(=O)N2OS(=O)(=O)[O-].[Na+] [AVIBACTAM SODIUM]           mg/L                    >                   16
1  O=C(NNC(=O)[C@@H]1CC[C@@H]2CN1C(=O)N2OS(=O)(=O)O)[C@@H]1CCCNC1           mg/L                    =                    8
2  O=C(NNC(=O)[C@@H]1CC[C@@H]2CN1C(=O)N2OS(=O)(=O)O)[C@@H]1CCNC1           mg/L                    =                    4
3  N#C[C@@H]1CC[C@@H]2CN1C(=O)N2OS(=O)(=O)[O-].[Na+]           mg/L                    >                   16
4  O.O=C(NC1CCNCC1)[C@@H]1CC[C@@H]2CN1C(=O)N2OS(=O)(=O)O           mg/L                    >                   16
